B1: library; numbered along this chain (parent)
chain: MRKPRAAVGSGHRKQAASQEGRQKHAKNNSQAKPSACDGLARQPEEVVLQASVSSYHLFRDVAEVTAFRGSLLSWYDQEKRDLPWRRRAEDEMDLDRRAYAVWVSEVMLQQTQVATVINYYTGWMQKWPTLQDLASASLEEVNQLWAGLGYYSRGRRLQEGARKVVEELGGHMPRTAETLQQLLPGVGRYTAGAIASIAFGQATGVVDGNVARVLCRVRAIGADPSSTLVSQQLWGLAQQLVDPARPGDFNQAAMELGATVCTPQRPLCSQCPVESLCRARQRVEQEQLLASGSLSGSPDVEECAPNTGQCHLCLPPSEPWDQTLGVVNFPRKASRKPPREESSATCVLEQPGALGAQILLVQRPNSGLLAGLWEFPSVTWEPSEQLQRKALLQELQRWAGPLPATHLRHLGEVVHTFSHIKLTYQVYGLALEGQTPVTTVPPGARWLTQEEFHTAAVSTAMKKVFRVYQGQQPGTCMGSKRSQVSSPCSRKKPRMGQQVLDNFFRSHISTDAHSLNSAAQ

- Variants of: B1
- assay_summary: 8OG:A repair function score (normalized; synonymous = 0, nonsense = -1) (normalized log-likelihood score); higher = more repair activity (WT-like);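 further: cells sorted at 72 h after reporter transfection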
- run_parameters: with 8OG:A DNA repair reporter (GFP) in HEK-293 MUTYH KO cells
Label T when 8OG:A repair function score >= -0.02; otherwise F.

>>> qualitative_label("S54L")
"T"
>>> qualitative_label("A254T")
"T"
>>> qualitative_label("K127Q")
"F"
>>> qualitative_label("A6Y")
"F"
>>> qualitative_label("E302Y")
"F"
>>> qualitative_label("P377S")
"F"
>>> qualitative_label("R154N")
"F"
>>> qualitative_label("G155E")
"F"
>>> qualitative_label("P225L")
"T"
>>> qualitative_label("N307K")
"F"
>>> qualitative_label("K127I")
"F"
>>> qualitative_label("S54V")
"F"
>>> qualitative_label("H312N")
"T"
>>> qualitative_label("K390D")
"T"
>>> qualitative_label("Q472D")
"T"
>>> qualitative_label("V207P")
"F"
>>> qualitative_label("K464F")
"F"
>>> qualitative_label("T204F")
"F"
>>> qualitative_label("L313V")
"F"
>>> qualitative_label("K464L")
"F"
>>> qualitative_label("V438A")
"T"
>>> qualitative_label("Q484R")
"T"
